The origin of these recorded values is patent US20110038881A1.

molecular target: HLA-DRB1*0701 (human); experiment: competition binding; details: modification not given
experimental endpoint: IC50 (µM)

Answered examples (8):
> print(dat)
                   binder  readout.value
1  IPIVGIIAGLVLFGA [p53*]          0.179
2  GTLRGYYNQSEAGSH [p15*]           2.96
3   THMTHHAVSDHEATL [p38]           53.7
4   PEYWDGETRKVKAHS [p11]           62.9
5  LTLRWEPSSQPTIPI [p51*]          0.072
6   EGLPKPLTLRWEPSS [p49]             71
7   EQLRAYLEGTCVEWL [p32]          0.149
8   MRYFFTSVSRPGRGE [p2*]          0.045

P = RGYYNQSEAGSHTVQ [p16*]
Q = HRVDLGTLRGYYNQS [p13*]
*Q* Task for the reader: decide whether P or Q has the larger IC50. // output: label of the selected item
*A* Q
(Q: 36.7 µM, P: 0.13 µM)
